FYI, the data here is from paper PMC8998355.

Tested Target: ABCB1 (Homo sapiens)
Construct: expressed in transfected cells; host or cells: L5178Y mouse T-cell lymphoma cells transfected with pHa MDR1/A retrovirus, selected with colchicine (L5178YMDR)
Measurement Description: ABCB1 inhibition assay (rhodamine 123 accumulation, flow cytometry)
Assay type: cell-based
Details: human, probe rhodamine 123 (5.2 µM); 20 µM, L5178YMDR, rhodamine 123 accumulation, n = 1
Endpoint Label: inhibition at 20 min, 20 µM (%)

CC(=O)[C@H]1CC=C2C3=CC(=O)[C@@H]4C[C@H]5OC(C)(C)O[C@H]5C[C@]4(C)C3=CC[C@@]21C [Compound 6]    0.13
CC(=O)O[C@H]1C[C@]2(C)C3=CC[C@@]4(C)C(=CC[C@@H]4[C@@]4(C)OC(C)(C)O[C@@H]4CCC(C)(C)O)C3=C(O)C(=O)[C@@]23C[C@@H]13 [Compound 17]    45.5
CC(=O)[C@H]1CC=C2C3=CC(=O)[C@@H]4C[C@H]5OC(C)(C)O[C@H]5C[C@]4(C)[C@H]3CC[C@@]21C [Compound 10]    -0.16
CC(=O)[C@H]1CC[C@@]2(O)C3=CC(=O)[C@@H]4C[C@H]5OC(C)(C)O[C@H]5C[C@]4(C)[C@H]3[C@H](O)C[C@]12C [Compound 3]    -0.35
CC(=O)[C@H]1CC[C@@]2(F)C3=CC(=O)[C@@H]4C[C@H]5OC(C)(C)O[C@H]5C[C@]4(C)[C@H]3CC[C@]12C [Compound 11]    -0.51
CC(=O)O[C@H]1C[C@@]2(C)C(=C(O)C(=O)C3=C2CC[C@@]2(C)C3=CC[C@@H]2[C@@]2(C)OC(C)(C)O[C@@H]2CCC(C)(C)O)C[C@H]1O [Compound 16, calonysterone 2-acetate 20,22-acetonide]    15.7
CC(=O)[C@H]1CC[C@@]2(F)C3=CC(=O)[C@@H]4C[C@H]5OC(C)(C)O[C@H]5C[C@]4(C)C3=CC[C@]12C [Compound 7]    0.29
CC(=O)N[C@H]1CC=C2C3=CC(=O)[C@@H]4C[C@H]5OC(C)(C)O[C@H]5C[C@]4(C)[C@H]3CC[C@@]21C [Compound 13]    -0.01
